# λmax (nm) (Solution) per record follows
Assay: Maximum absorption wavelength of the adhesive composition (solution), UV-vis
Format: physicochemical
Conditions: adhesive composition in MEK; UV-vis apparatus (Shimazu UV-3600)
Just the number in nm, nothing appended.

Reference set, count: 5
>  <compound>
Cc1nn(-c2ccccc2)c(O)c1C=C1C(=O)NC(=O)NC1=O [Comparative Compound Z1, reference compound]

>  <unit_name>
nm

>  <reported_result>
412

$$$$
>  <compound>
CC1=NN(c2ccccc2)C(=O)/C1=C\c1c(C)nn(-c2ccccc2)c1O [Comparative Compound Z2, reference compound]

>  <unit_name>
nm

>  <reported_result>
405

$$$$
>  <compound>
Cc1ccc(-n2nc(-c3ccccc3)c(C=C3C(=O)N(C4CCCCC4)C(=O)N(C4CCCCC4)C3=O)c2O)c(C)c1 [Compound P7]

>  <unit_name>
nm

>  <reported_result>
399

$$$$
>  <compound>
O=C1C(=Cc2c(-c3ccccc3)nn(-c3ccccc3)c2O)C(=O)N(C2CCCCC2)C(=O)N1C1CCCCC1 [Compound P5]

>  <unit_name>
nm

>  <reported_result>
407

$$$$
>  <compound>
Cc1nn(-c2ccccc2)c(O)c1C=C1C(=O)N(C2CCCCC2)C(=O)N(C2CCCCC2)C1=O [Compound P1]

>  <unit_name>
nm

>  <reported_result>
411

$$$$

Would you mind telling me what λmax (nm) (Solution) value was observed for Cc1ccccc1-n1nc(C(C)C)c(C=C2C(=O)N(c3ccccc3)C(=O)N(c3ccccc3)C2=O)c1O [Compound P15] ?
402

Would you mind telling me what λmax (nm) (Solution) value was observed for Cc1ccc(-n2nc(C)c(C=C3C(=O)N(C4CCCCC4)C(=O)N(C4CCCCC4)C3=O)c2O)c(C)c1 [Compound P4] ?
403
